system: panel of 55 breast cancer cell lines; test: Cell growth inhibition assay (Cell Titer Glo, 72 h, 9 doses; GI50, TGI, LC50); type: cell-based, human; settings: SUM185PE cell line; censored GI50 values; value is the negative log10 of mol/L
quantity measured: GI50
Please give the numeric answer without any surrounding text.

# annotated cases, reported GI50 shown
>  <molecule>
O=S(=O)(CC1CS1)c1ccc(Oc2ccccc2)cc1 (stereo not drawn)

>  <GI50>
4.76

$$$$
>  <molecule>
C=CCNC1=C2C[C@@H](C)C[C@H](OC)[C@H](O)[C@@H](C)/C=C(\C)[C@H](OC(N)=O)[C@@H](OC)/C=C\C=C(/C)C(=O)NC(=CC1=O)C2=O

>  <GI50>
7.46

$$$$
>  <molecule>
C[C@@H](Oc1cc(-n2cnc3ccc(CN4CCN(C)CC4)cc32)sc1C(N)=O)c1ccccc1C(F)(F)F [GSK461364A]

>  <GI50>
5.66

$$$$
>  <molecule>
CC(C)(C)c1cc(C=C(C#N)C#N)cc(Br)c1O

>  <GI50>
5.57

$$$$

### Prompt Recorded GI50 for "O=c1[nH]c2ccccc2n1C1CCN(Cc2ccc(-c3nc4cc5[nH]cnc5cc4nc3-c3ccccc3)cc2)CC1" , please?
### Response 5.95

### Prompt # GI50 lookup, item CCNCCCCNCCCCNCCCCNCCCCNCC=CCNCCCCNCCCCNCCCCNCCCCNCC.Cl.Cl.Cl.Cl.Cl.Cl.Cl.Cl.Cl.Cl (stereo in doubt)
### Response 6.68
